Attribution: patent US20100324284A1

Tested on: human lung cancer cell line NCI-H460
Protocol: Cell proliferation inhibitory activity, NCI-H460 (Cell Counting Kit-8)
Format: cell-based
Test context: 96 h, NCI-H460, 4 days, read-out: Cell proliferation inhibitory activity (IC50, μM) Non-small cell cancer (NCIH460)
Endpoint: IC50 (µM)

P. CS(=O)(=O)n1ccc2c(-c3cnc(N)nc3)nc(N3CCOCC3)nc21
Q. Nc1ncc(-c2nc(N3CCOCC3)nc3c2ccn3-c2ccc(CN3CCS(=O)(=O)CC3)cc2)cn1
Hi there, can you help? I need to know whether P or Q has lower measured IC50. API: response body contains the label of the selected item. Q
(Q: 0.17 µM, P: 0.29 µM)

I. Cc1ccc(C(=O)N2CCOCC2)cc1-n1ccc2c(-c3cnc(N)nc3)nc(N3CCOCC3)nc21
II. CCN1CCN(c2cc(-n3ccc4c(-c5cnc(N)nc5)nc(N5CCOCC5)nc43)ccn2)CC1
Which entry has a larger number for IC50, I or II ? API: response body contains the label of the selected item. I

====

Assay system: human PI3K (p110α/p85α) (Homo sapiens, UniProt P42336)
Sequence (P42336 whole entry): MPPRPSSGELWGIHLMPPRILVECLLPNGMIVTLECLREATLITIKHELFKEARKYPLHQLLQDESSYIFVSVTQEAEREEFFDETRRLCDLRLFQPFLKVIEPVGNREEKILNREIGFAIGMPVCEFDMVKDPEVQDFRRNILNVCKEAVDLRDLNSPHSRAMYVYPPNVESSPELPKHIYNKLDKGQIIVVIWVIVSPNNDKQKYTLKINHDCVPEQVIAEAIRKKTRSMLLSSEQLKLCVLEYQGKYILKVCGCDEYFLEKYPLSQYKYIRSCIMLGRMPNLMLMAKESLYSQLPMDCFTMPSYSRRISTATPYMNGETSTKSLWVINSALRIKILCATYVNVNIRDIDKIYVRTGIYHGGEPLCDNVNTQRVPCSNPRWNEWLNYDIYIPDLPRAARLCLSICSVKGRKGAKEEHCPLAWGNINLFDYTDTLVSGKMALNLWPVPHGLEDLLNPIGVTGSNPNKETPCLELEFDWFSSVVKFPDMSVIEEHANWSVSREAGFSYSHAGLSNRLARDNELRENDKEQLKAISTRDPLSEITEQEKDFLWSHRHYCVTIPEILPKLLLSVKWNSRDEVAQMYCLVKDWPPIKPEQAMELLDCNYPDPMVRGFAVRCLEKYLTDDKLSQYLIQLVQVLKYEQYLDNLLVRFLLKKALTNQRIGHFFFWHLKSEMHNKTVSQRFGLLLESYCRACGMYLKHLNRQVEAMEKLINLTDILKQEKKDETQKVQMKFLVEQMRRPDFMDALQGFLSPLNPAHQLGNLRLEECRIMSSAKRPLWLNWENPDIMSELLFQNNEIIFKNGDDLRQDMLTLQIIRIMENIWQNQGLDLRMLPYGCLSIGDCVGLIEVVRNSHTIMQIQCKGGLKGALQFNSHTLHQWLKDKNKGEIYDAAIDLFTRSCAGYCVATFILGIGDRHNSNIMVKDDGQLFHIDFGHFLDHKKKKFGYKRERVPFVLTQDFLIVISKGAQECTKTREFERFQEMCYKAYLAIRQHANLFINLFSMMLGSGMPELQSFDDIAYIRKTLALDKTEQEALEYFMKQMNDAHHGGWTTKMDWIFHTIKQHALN
Sequence (P27986 whole entry partner): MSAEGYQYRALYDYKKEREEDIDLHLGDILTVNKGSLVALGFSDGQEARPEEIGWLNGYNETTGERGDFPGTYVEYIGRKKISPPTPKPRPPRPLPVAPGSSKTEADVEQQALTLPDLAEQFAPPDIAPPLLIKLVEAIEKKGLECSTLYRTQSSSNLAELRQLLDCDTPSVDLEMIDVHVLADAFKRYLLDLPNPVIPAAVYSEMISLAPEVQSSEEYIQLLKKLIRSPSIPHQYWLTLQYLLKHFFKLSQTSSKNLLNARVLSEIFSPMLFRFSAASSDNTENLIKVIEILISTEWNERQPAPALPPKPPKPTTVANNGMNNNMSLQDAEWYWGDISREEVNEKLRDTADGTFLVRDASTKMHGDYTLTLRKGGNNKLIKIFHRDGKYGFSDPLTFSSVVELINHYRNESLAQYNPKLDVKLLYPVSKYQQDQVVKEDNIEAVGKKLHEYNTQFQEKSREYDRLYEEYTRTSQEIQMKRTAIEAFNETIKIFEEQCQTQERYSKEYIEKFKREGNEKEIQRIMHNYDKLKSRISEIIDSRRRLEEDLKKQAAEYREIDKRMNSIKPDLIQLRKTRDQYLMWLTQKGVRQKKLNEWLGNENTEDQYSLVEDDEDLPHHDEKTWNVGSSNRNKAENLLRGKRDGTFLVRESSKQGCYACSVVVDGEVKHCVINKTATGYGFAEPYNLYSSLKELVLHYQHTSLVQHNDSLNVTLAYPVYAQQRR
Protocol: Measurement of PI3K inhibitory activity (AlphaScreen GST Detection Kit)
Type: biochemical
Test context: 10 μM ATP, 4 μM PI(4,5)P2, read-out: Enzyme inhibitory activity (IC50, μM) PI3K α
Endpoint: IC50 (µM)

[
  {
    "Test smiles": "Nc1ncc(-c2nc(N3CCOCC3)nc3c2ccn3-c2ccc(CN3CCS(=O)(=O)CC3)cc2)cn1",
    "Assay system": "human PI3K (p110α/p85α) (Homo sapiens, UniProt P42336)",
    "IC50, µM": 0.093
  }
]

I. Cc1ccc(C(=O)N2CCOCC2)cc1-n1ccc2c(-c3cnc(N)nc3)nc(N3CCOCC3)nc21
II. CS(=O)(=O)n1ccc2c(-c3cnc(N)nc3)nc(N3CCOCC3)nc21
III. CCN1CCN(c2cc(-n3ccc4c(-c5cnc(N)nc5)nc(N5CCOCC5)nc43)ccn2)CC1
Order field: IC50 | Direction: descending (largest first) Write the labels in rank order as requested. I, II, III
